Reported aggregation suppression score values follow for various molecules
# experimentalProtocol: 75Q-TubH aggregate inhibition, S. cerevisiae, yeast (AID 1616)
# runConditions: S. cerevisiae 75Q-TubH polyglutamine aggregation suppression; stronger effect = higher value
Numbered stars: 1 amine (or outer) side, 2 acyl side, 3 side chain; on linkers, the order of the positions; unused ones are H or OH. Bridge positions count the residues as written; N and C are the ends. Square brackets hold non-standard residues; d marks the D form. Peptide text beside a SMILES is read from it. * marks the point of attachment. ξ: configuration not given here. ΔAla(Z-3-ureido) = NC(=O)N/C=C(\N)C(=O)O; X2 = NC1=NCCC(C(N[*:1])C(=O)[*:2])N1; ξβ3hOrn = NCCCC(N)CC(=O)*; Dap = NC[CH](N)C(=O)O
Give a plain numeric answer without units written out.

[[record]]
molecule = "NCCCC(N)CC(=O)NCC1NC(=O)C(CO)NC(=O)C(N)CNC(=O)C(C2CCN=C(N)N2)NC(=O)/C(=C/NC(N)=O)NC1=O (stereo not drawn) (H-[Dap]S[Dap](ξβ3hOrn)[ΔAla(Z-3-ureido)][X2]; lactam 1-C; configuration not given here)"
resultvalue = 0.882


Prompt: For the molecule NC[C@@H]1O[C@H](OC2[C@@H](O)[C@H](O[C@@H]3[C@H](N)[C@@H](O)C[C@H](N)[C@H]3O[C@H]3O[C@H](CO)[C@@H](O)[C@H](O)[C@H]3N)O[C@@H]2CO)[C@H](N)[C@@H](O)[C@@H]1O (some centres undefined) , report aggregation suppression score.
Response: 0.564

Prompt: For the molecule `CC[C@]12CCCN3CCc4c(n(c5ccccc45)[C@](O)(C(=O)OC)C1)[C@@H]32` , report aggregation suppression score.
Response: 1.32

Prompt: For the molecule `COc1ccc(-c2cc(=O)c3c(O)cc(O)cc3o2)cc1` , report aggregation suppression score.
Response: 0.73

Prompt: For the molecule CC12CC[C@@H]3c4ccc(O)cc4CCC3[C@@H]1CCC2=O (some centres undefined) , report aggregation suppression score.
Response: 0.566

Prompt: For the molecule CN=C(N)NCCCC(N)C(=O)O (centres undefined) , report aggregation suppression score.
Response: 1.06

###

# experimentalProtocol: viability loss with induced miR-34 in A549 – imaging, A549 dox-inducible miR-34, nuclei and caspase counts, primary screen (AID 1347080)
# runConditions: A549 miR-34 inducible, Hoechst nuclei count, 48 h; measured here: total cells with miR-34 induction; stronger effect = lower value
measurementType: cell count
Give a plain numeric answer without units written out.

[[record]]
compound = "CCCCCC(=O)/C=C/[C@H]1[C@H](O)CC(=O)[C@@H]1C/C=C\\CCCC(=O)O"
resultvalue = 6130

[[record]]
compound = "CC(C)=CCC[C@](C)(OC1OC(COC2OCC(O)C(O)C2O)C(O)C(O)C1O)C1CC[C@]2(C)[C@@H]1C(O)C[C@H]1[C@@]3(C)CCC(OC4OC(CO)C(O)C(O)C4O)C(C)(C)[C@@H]3CC[C@]12C (stereo partly specified)"
resultvalue = 7600


Prompt: For the compound Nc1ccn(C2O[C@H](CO)[C@@H](O)C2(F)F)c(=O)n1 (stereo partly specified) , report cell count.
Response: 1960

Prompt: For the compound `O=C(NCCc1ccco1)c1cc(C2CC2)[nH]n1` , report cell count.
Response: 9380

Prompt: For the compound `Cc1csc(CNc2nccc(-c3cnn(-c4ccccc4)c3)n2)n1` , report cell count.
Response: 4550

Prompt: For the compound `O=C(c1cn(Cc2cncn2Cc2ccc(Br)cc2)cc1-c1cccc2ccccc12)N1CCOCC1` , report cell count.
Response: 3260

Prompt: For the compound O=C1O/C(=C/Br)CCC1c1cccc2ccccc12 (stereo unspecified) , report cell count.
Response: 4330

Prompt: For the compound `CCC(C)(C)c1nnc(NC(=O)NCc2ccco2)s1` , report cell count.
Response: 8900

Prompt: For the compound `Cc1cccc(-n2cnc3cc(N)ccc32)c1` , report cell count.
Response: 8160

Prompt: For the compound CCC(C)C(=O)OC1CC(O)C=C2C=CC(C)C(CCC(O)CC(O)CC(=O)O)C21 (stereo unspecified) , report cell count.
Response: 10300

Prompt: For the compound O=C(O)C1(O)C[C@H](O)C(O)[C@@H](O)C1 (stereo partly specified) , report cell count.
Response: 8930

Prompt: For the compound `CC(C)n1ncc(NC(=O)Cn2ccc(-c3ccc(C(F)(F)F)cc3)n2)n1` , report cell count.
Response: 5250

Prompt: For the compound CC(C)n1c(C=CC(O)CC(O)CC(=O)O)c(-c2ccc(F)cc2)c2ccccc21 (stereo unspecified) , report cell count.
Response: 1580

Prompt: For the compound `CC1=C(/C=C/C(C)=C\C=C\C(C)=C\C(=O)O)C(C)(C)CCC1` , report cell count.
Response: 5680

Prompt: For the compound `COc1c(C)c(C(=O)c2ccc(N)c(C(=O)O)c2)n2ccccc12` , report cell count.
Response: 7600

Prompt: For the compound CC(C)(C)NC(=O)C1CC[C@H]2[C@@H]3CC[C@H]4NC(=O)C=C[C@]4(C)[C@@H]3CC[C@]12C (stereo partly specified) , report cell count.
Response: 8400

Prompt: For the compound `Brc1ccc([C@H]2CN3CCSC3=N2)cc1` , report cell count.
Response: 9880

###

# experimentalProtocol: growth inhibition, single agents and combos, UWB1.289, cell-based, BGB or cisplatin combos, synergistic combos for chromothripsis tumors (AID 1671456);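 also: cells exposed to compound for four days; 0% = vehicle DMSO and 100% = killing by high DMSO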
# runConditions: UWB1.289 ovarian carcinoma cells, measured here: inhibition with BGB combination, at 0.05 µM, stronger effect = higher value
measurementType: inhibition (%)
# unit: % | format: bare number

Previously resolved entries follow.
[[record]]
molecule = "O=C1C(=Cc2cccnc2)C(=O)c2ccccc21"
measurementunit = "%"
resultvalue = 2.81

[[record]]
molecule = "Nc1ncn(C2OC(CO)C(O)C2O)c(=O)n1 (stereo unspecified)"
measurementunit = "%"
resultvalue = 8.02

[[record]]
molecule = "Nc1nc(NC2CC2)cc(-c2cccc(Cl)c2Cl)n1"
measurementunit = "%"
resultvalue = -10.8

[[record]]
molecule = "O=C(O)c1cc2cccc([N+](=O)[O-])c2[nH]1"
measurementunit = "%"
resultvalue = -35.8

[[record]]
molecule = "O=c1[nH]c(=O)n(C2CC(O)C(CO)O2)cc1I (stereo unspecified)"
measurementunit = "%"
resultvalue = -13.3


Prompt: For the molecule `NC(=S)NN=Cc1ncccc1N` , report inhibition.
Response: -19.9

Prompt: For the molecule `Cc1cc(C=CC#N)cc(C)c1Nc1ccnc(Nc2ccc(C#N)cc2)n1` , report inhibition.
Response: -12.2

Prompt: For the molecule `O=c1cc(-c2ccc(O)cc2)[nH]c(=S)[nH]1` , report inhibition.
Response: -5.24

Prompt: For the molecule CCC1(O)C(=O)OCc2c1cc1n(c2=O)Cc2cc3cc(O)ccc3nc2-1 (stereo unspecified) , report inhibition.
Response: 5.35

Prompt: For the molecule CC1CN(c2c(F)c(N)c3c(=O)c(C(=O)O)cn(C4CC4)c3c2F)CC(C)N1 (stereo unspecified) , report inhibition.
Response: 0.724

Prompt: For the molecule CC(C)(O)[C@H]1CC[C@@](C)(C2[C@@H](O)C[C@@]3(C)[C@@H]4C[C@H](O)C5C(C)(C)[C@@H](O)CCC56CC46CC[C@]23C)O1 (stereo partly specified) , report inhibition.
Response: -14.1

###

# experimentalProtocol: drug combination growth inhibition, ovarian cancer – cell-based, oncology-focused library, rucaparib conditional, profiling panel (AID 1508598)
# runConditions: patient-derived ovarian cancer cells, CellTiter-Glo viability, 144 h; at 0.00122 µM; OCI-P5x cells; without rucaparib; stronger effect = lower value
*1 amine or outer side, *2 acyl side, *3 side chain or, on linkers, in order; H or OH if unused. Where a SMILES comes first, the peptide text is derived from it. Bridges are numbered along the chain shown (N, C = ends). Roman numbers before positions name the chains, in order. [ ]: non-standard residue; d: D form. Hexamethylenediamine = C(CCCN[*:2])CCN[*:1]; Dip = N[C@H](C(=O)O)C(c1ccccc1)c1ccccc1; Chg = N[C@H](C(=O)O)C1CCCCC1; NMeA = CN[C@@H](C)C(=O)O
Reported viability values follow for various molecules
# unit: % | format: bare number

[[record]]
molecule = "C[C@H]1C[C@H]2[C@@H]3CCC4=CC(=O)C=C[C@]4(C)[C@@H]3C(=O)C[C@]2(C)[C@]1(O)C(=O)CO"
resultvalue = 116

[[record]]
molecule = "Cc1ccc(NC(=O)c2ccc(CN3CCN(C)CC3)cc2)cc1Nc1nc(-c2cccnc2)cs1"
resultvalue = 96.2

[[record]]
molecule = "COc1cccc2c1C(=O)c1c(O)c3c(c(O)c1C2=O)C[C@@](O)(C(C)=O)C[C@H]3O[C@H]1C[C@H](N)[C@H](O)[C@H](C)O1"
resultvalue = 101

[[record]]
molecule = "CN[C@@H](C)C(=O)N[C@H](C(=O)N1CCC[C@H]1C(=O)N[C@H](C(=O)NCCCCCCNC(=O)[C@@H](NC(=O)[C@@H]1CCCN1C(=O)[C@@H](NC(=O)[C@H](C)NC)C1CCCCC1)C(c1ccccc1)c1ccccc1)C(c1ccccc1)c1ccccc1)C1CCCCC1 (I: H-[NMeA][Chg]P[Dip] / II: H-[NMeA][Chg]P[Dip]; linker I:C-II:C via Hexamethylenediamine)"
resultvalue = 94.9

[[record]]
molecule = "Cc1[nH]c(C=C2C(=O)Nc3ccc(S(=O)(=O)N(C)c4cccc(Cl)c4)cc32)c(C)c1C(=O)N1CCN(C)CC1"
resultvalue = 98.8


Prompt: For the molecule `C[C@]12CC[C@H]3c4ccc(O)cc4CC[C@H]3[C@@H]1CCC2=O` , report viability.
Response: 106
